# Tested on: Escherichia coli TOP10
# assayMethodText: shrunken log2 fold change of peptide-encoding DNA abundance (4.5 h post-induction vs induction); higher = less antimicrobial activity (less host growth inhibition)
# conditionDescription: time post-induction: 4.5 h; library: site-saturation at positions 5, 18, 19, 20
Note to self: class labels come from recorded shrunken log2 fold change, ranges listed here: c1 (below -0.1), c2 (-0.1 to below 0.06), c3 (0.06 or more)

Query block: Entry RRIRHRPPRLPRPRPRPESNPRP belongs to which category?
Result block: c1

Query block: Same again, this time with RRIRSRPPRLPRPRPRPEHQPRP
Result block: c3

Query block: Same again, this time with RRIRVRPPRLPRPRPRPTKIPRP
Result block: c1

Query block: Same again, this time with RRIRDRPPRLPRPRPRPIRQPRP
Result block: c3

Query block: Same again, this time with RRIRYRPPRLPRPRPRPQDKPRP
Result block: c1

Query block: Same again, this time with RRIRSRPPRLPRPRPRPVMMPRP
Result block: c2

Query block: Same again, this time with RRIRCRPPRLPRPRPRPHRFPRP
Result block: c2

Query block: Same again, this time with RRIRCRPPRLPRPRPRPWQKPRP
Result block: c2

Query block: Same again, this time with RRIRERPPRLPRPRPRPTSEPRP
Result block: c3

Query block: Same again, this time with RRIRLRPPRLPRPRPRPTPRPRP
Result block: c3

Query block: Same again, this time with RRIRGRPPRLPRPRPRPVVWPRP
Result block: c3

Query block: Same again, this time with RRIRPRPPRLPRPRPRPFCIPRP
Result block: c1

Query block: Same again, this time with RRIRWRPPRLPRPRPRPMCHPRP
Result block: c1

Query block: Same again, this time with RRIRIRPPRLPRPRPRPSNQPRP
Result block: c1

Query block: Same again, this time with RRIRFRPPRLPRPRPRPVWSPRP
Result block: c3

Query block: Same again, this time with RRIRKRPPRLPRPRPRPTHYPRP
Result block: c1

Query block: Same again, this time with RRIRPRPPRLPRPRPRPWHQPRP
Result block: c3

Query block: Same again, this time with RRIRNRPPRLPRPRPRPYNDPRP
Result block: c1

Query block: Same again, this time with RRIRERPPRLPRPRPRPAQTPRP
Result block: c2

Query block: Same again, this time with RRIRCRPPRLPRPRPRPKYTPRP
Result block: c1

Query block: Same again, this time with RRIRKRPPRLPRPRPRPMNVPRP
Result block: c3

Query block: Same again, this time with RRIRFRPPRLPRPRPRPQNSPRP
Result block: c1

Query block: Same again, this time with RRIRKRPPRLPRPRPRPLTSPRP
Result block: c2

Query block: Same again, this time with RRIRTRPPRLPRPRPRPGKHPRP
Result block: c1

Query block: Same again, this time with RRIRRRPPRLPRPRPRPTGWPRP
Result block: c3

---

Exercise: for every item that follows, state its recorded shrunken log2 fold change.
# Test system: Escherichia coli TOP10;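 further: peptides expressed intracellularly from a pBAD plasmid library in pooled LB shake-flask culture, induced with 0.3% L-arabinose, DNA abundance read by NGS, three biological replicates, DESeq2 with apeglm shrinkage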
# assayMethodText: shrunken log2 fold change of peptide-encoding DNA abundance (4.5 h post-induction vs induction); higher = less antimicrobial activity (less host growth inhibition)
# conditionDescription: time post-induction: 4.5 h; library: site-saturation at positions 5, 18, 19, 20

Query block: What measured shrunken log2 fold change is associated with RRIRRRPPRLPRPRPRPVTLPRP on Escherichia coli TOP10?
Result block: 0.0854

Query block: Same again, this time with RRIRMRPPRLPRPRPRPGCTPRP
Result block: 0.245

Query block: Same again, this time with RRIRYRPPRLPRPRPRPQHGPRP
Result block: -0.0664

Query block: Same again, this time with RRIRWRPPRLPRPRPRPRSEPRP
Result block: 0.0877

Query block: Same again, this time with RRIRSRPPRLPRPRPRPALIPRP
Result block: 0.0414

Query block: Same again, this time with RRIRGRPPRLPRPRPRPVVVPRP
Result block: 0.985

Query block: Same again, this time with RRIRFRPPRLPRPRPRPWNNPRP
Result block: -0.0242

Query block: Same again, this time with RRIRYRPPRLPRPRPRPDLRPRP
Result block: -1.03

Query block: Same again, this time with RRIRERPPRLPRPRPRPFMLPRP
Result block: -0.511

Query block: Same again, this time with RRIRYRPPRLPRPRPRPTQEPRP
Result block: 0.0039

Query block: Same again, this time with RRIRCRPPRLPRPRPRPARAPRP
Result block: 0.471

Query block: Same again, this time with RRIRQRPPRLPRPRPRPKDDPRP
Result block: -0.0913

Query block: Same again, this time with RRIRQRPPRLPRPRPRPKHPPRP
Result block: -0.0928

Query block: Same again, this time with RRIRGRPPRLPRPRPRPRYNPRP
Result block: -0.0667

Query block: Same again, this time with RRIRQRPPRLPRPRPRPHSIPRP
Result block: 0.0425

Query block: Same again, this time with RRIRARPPRLPRPRPRPPAEPRP
Result block: 1.15

Query block: Same again, this time with RRIRNRPPRLPRPRPRPKMRPRP
Result block: 0.313

Query block: Same again, this time with RRIRIRPPRLPRPRPRPNTFPRP
Result block: -0.926

Query block: Same again, this time with RRIRHRPPRLPRPRPRPMDEPRP
Result block: -0.204

Query block: Same again, this time with RRIRRRPPRLPRPRPRPEVQPRP
Result block: -0.00368

Query block: Same again, this time with RRIRWRPPRLPRPRPRPSNTPRP
Result block: -0.355

Query block: Same again, this time with RRIRMRPPRLPRPRPRPEGKPRP
Result block: 3.36

Query block: Same again, this time with RRIRHRPPRLPRPRPRPRIAPRP
Result block: 0.0721

Query block: Same again, this time with RRIRMRPPRLPRPRPRPAVEPRP
Result block: 0.741

Query block: Same again, this time with RRIRNRPPRLPRPRPRPMFKPRP
Result block: -0.386

Query block: Same again, this time with RRIRVRPPRLPRPRPRPDFVPRP
Result block: -0.0423

Query block: Same again, this time with RRIRARPPRLPRPRPRPIFWPRP
Result block: 0.305

Query block: Same again, this time with RRIRCRPPRLPRPRPRPHYRPRP
Result block: 0.127

Query block: Same again, this time with RRIRIRPPRLPRPRPRPPLDPRP
Result block: 0.0528

Data credit: the supplement of paper PMC9112550
